Values were extracted from PubChem BioAssay (NCI).

Assay: NCI Yeast Anticancer Drug Screen. Data for the cln2 rad14 strain (AID 165)
Conditions: S. cerevisiae cln2 rad14 strain, at 50.0 µM, active compounds read high
About 79,000 compounds went through this panel and 15% of them were active in at least one assay; those are over-represented in the sample as a whole.
Would you please tag the item True when its growth inhibition is 80% or above, and False when it is below?

Exercise: Evaluate CCCCC(CC)COP(=O)(OCC(CC)CCCC)OCC(CC)CCCC (stereo not given) : growth inhibition at minimum 80%?
Key: False

Exercise: Follow-up item: Cc1c(N=Nc2ccc(Br)cc2)c(-c2ccccc2)nn1C(N)=S
Key: True

Exercise: Moving on to the next molecule: NSc1ccccn1
Key: True

Exercise: Then this molecule: O=[N+]([O-])c1ccc(S(=O)(=O)N/N=C/C=C/c2ccccc2)cc1
Key: False

Exercise: Consider next the molecule Cc1cc(N2C(=O)CCSC2=S)c([N+](=O)[O-])cc1C in the same way.
Key: True

Exercise: And then CC1Cc2cc(O)c(O)cc2-c2cc(O)c(O)cc2CC1C (stereo not given) , what is it?
Key: True

Exercise: Quick one: O=S1(=O)c2ccccc2C(Br)C1Br (stereo not given)
Key: True

Exercise: Entry to check: CN(C)c1ccc(C(c2cc3c(cc2O)OCO3)N2CCCC2)cc1 (stereo not given)
Key: True

Exercise: Next molecule up: CC(=O)O[C@@H]1CC(C)C2CC2C2=C(C(O)OC2O)[C@@H]1C(C)CCC=C(C)C (stereo not given in full)
Key: True

Exercise: Check c1ccc2c(Nc3ccc(Oc4ccc(Nc5c6ccccc6nc6ccccc56)cc4)cc3)c3ccccc3nc2c1 too.
Key: False

Exercise: Same thing, different molecule: [N-]=[N+]=Nc1ccc(SN2C(=O)c3ccccc3C2=O)cc1
Key: False

Exercise: Follow-up entry: Cc1nn(-c2ccc(Cl)cc2)c2nc(N)nc(N)c12
Key: False

Exercise: Moving on to CC(=O)Oc1ccc(C)cc1C(C)(C)C
Key: False

Exercise: Another molecule: NNc1ccccc1F
Key: True

---

Experiment: NCI Yeast Anticancer Drug Screen. Data for the rad50 strain (AID 155)
Conditions: S. cerevisiae rad50 strain growth inhibition; at 50.0 µM (retest, dose inferred, filed as 5.0)
Method: Growth inhibition of yeast strains with defined genetic alterations is measured as a screen for potential anti-cancer activity. Selected strains with alterations in DNA damage repair or cell cycle control were exposed to compounds and growth inhibition was measured relative to vehicle treated controls. The strain used in this assay is rad50
Compounds without any hit were thinned out: in the full panel of roughly 79,000, 15% have a hit. Active and inactive are the calls of the source. Rule as the data show it: active = growth inhibition above about 70%; inactive = the rest.
// one of TRUE for active, FALSE for inactive, no free text

Exercise: // outcome(item) with item = O=C(CSc1nccc(=O)[nH]1)c1ccccc1
Key: FALSE

Exercise: Same question for O=C1/C(=C\c2ccc(Cl)cc2Cl)Sc2scc(-c3ccc(O)c(O)c3)[n+]21 please.
Key: FALSE

Exercise: Okay, and CCOc1ccccc1/C=C1\C=Nc2ccccc21 ?
Key: FALSE

Exercise: Also need Fc1cccc(C2SCc3nc4ccccc4n32)c1F (configuration not stated) , thanks.
Key: FALSE

Exercise: Also, O=C(O)/C=C/C(=O)Nc1cccc2ccccc12 please.
Key: FALSE

Exercise: And what about the molecule O=C(O)C(Cc1ccc(O)cc1)NC(=O)N(c1ccccc1)c1ccccc1 (configuration not stated) ?
Key: FALSE

Exercise: What do you get for CCCCCCCCCCN1Cc2ccccc2C1 ?
Key: TRUE
